System: Drosophila melanogaster Or43a olfactory receptor, SEQ ID NO: 4
Experiment: Interaction of plant essential oils with Or43a receptor binding site (3H-tyramine)
Settings: membranes, FIGS. 16, 17, 19-21
MEASUREMENT_KIND: interaction with the olfactory receptor

## Input Look up and report measured interaction with the olfactory receptor for this entry: CC1=CCC2CC1C2(C)C (stereo not drawn) [α-pinene]
## Output interact

## Input Look up and report measured interaction with the olfactory receptor for this entry: OCc1ccc2c(c1)OCO2 [piperonyl alcohol]
## Output interact

## Input Look up and report measured interaction with the olfactory receptor for this entry: NCc1ccc2c(c1)OCO2 [piperonyl amine]
## Output interact

###

Target: Or83b receptor (Drosophila melanogaster, UniProt Q9VNB5)
Sequence (Q9VNB5 1-486): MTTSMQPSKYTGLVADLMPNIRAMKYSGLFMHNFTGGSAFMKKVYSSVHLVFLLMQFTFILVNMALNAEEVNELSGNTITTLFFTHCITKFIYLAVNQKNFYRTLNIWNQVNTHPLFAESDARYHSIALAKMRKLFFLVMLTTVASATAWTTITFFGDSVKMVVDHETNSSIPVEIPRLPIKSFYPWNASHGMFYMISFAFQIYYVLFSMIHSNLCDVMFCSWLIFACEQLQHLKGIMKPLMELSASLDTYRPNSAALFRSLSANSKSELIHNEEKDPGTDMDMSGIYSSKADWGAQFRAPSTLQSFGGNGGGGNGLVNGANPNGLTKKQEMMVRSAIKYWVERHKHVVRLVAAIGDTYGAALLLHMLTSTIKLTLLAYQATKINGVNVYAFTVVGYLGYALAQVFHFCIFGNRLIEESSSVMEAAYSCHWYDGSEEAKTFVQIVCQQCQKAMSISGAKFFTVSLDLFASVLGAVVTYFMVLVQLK
MEASUREMENT_KIND: pKi
One number for each entry, as −log10 of the molar value.

## Input Look up and report measured pKi for this entry: NCCc1ccc(O)cc1 [tyramine]
## Output 7.01

###

Test system: Drosophila melanogaster Or83b olfactory receptor, SEQ ID NO: 6
Assay: Interaction of plant essential oils with Or83b receptor binding site (3H-tyramine)
Conditions: membranes, FIGS. 16, 18-21
MEASUREMENT_KIND: interaction with the olfactory receptor

## Input Look up and report measured interaction with the olfactory receptor for this entry: NCc1ccc2c(c1)OCO2
## Output interact

## Input Look up and report measured interaction with the olfactory receptor for this entry: O=C1C=CC(=O)C=C1
## Output interact

## Input Look up and report measured interaction with the olfactory receptor for this entry: CC1=CCC2CC1C2(C)C (stereo not drawn)
## Output interact

###

Target: Or83b receptor (Drosophila melanogaster, UniProt Q9VNB5)
Sequence (Q9VNB5 1-486): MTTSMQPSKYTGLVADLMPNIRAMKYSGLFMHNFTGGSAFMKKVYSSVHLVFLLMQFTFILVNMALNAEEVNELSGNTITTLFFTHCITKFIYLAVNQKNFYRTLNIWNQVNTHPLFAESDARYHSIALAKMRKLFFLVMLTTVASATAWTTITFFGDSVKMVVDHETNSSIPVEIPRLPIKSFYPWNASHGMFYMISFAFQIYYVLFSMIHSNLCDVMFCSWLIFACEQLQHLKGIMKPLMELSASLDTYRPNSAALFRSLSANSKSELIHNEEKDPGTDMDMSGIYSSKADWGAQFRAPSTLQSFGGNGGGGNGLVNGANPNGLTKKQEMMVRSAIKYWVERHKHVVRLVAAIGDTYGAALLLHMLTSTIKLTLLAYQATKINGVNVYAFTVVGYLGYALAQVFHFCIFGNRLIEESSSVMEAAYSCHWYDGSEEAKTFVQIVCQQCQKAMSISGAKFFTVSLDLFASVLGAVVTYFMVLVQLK
pKd: −log10 of the molar value.
MEASUREMENT_KIND: pKd

## Input Look up and report measured pKd for this entry: NCCc1ccc(O)cc1
## Output ~7.01
